Target: T1, human IL-23R on Kit-225 cells (human, UniProt Q5VWK5 24-629)
T1 sequence: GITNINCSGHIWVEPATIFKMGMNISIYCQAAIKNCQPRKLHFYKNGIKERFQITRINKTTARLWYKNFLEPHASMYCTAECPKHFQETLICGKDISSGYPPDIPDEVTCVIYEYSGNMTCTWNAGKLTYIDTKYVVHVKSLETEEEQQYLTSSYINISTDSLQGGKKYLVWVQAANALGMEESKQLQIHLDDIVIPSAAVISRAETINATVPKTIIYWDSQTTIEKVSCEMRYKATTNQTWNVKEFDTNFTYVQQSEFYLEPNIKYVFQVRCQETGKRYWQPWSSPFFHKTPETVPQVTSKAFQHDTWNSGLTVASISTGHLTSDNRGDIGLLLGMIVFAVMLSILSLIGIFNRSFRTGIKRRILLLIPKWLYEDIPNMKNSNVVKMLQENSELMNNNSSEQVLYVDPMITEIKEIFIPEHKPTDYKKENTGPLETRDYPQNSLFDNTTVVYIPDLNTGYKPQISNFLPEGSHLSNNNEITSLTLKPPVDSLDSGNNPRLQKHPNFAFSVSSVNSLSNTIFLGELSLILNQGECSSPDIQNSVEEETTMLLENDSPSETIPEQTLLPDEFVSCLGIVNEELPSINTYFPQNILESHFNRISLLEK
Test: cell-based or functional assay
assay.metric: Human IL-23-inducible Kit-225 cell proliferation inhibitory activity, IC50 (ng/mL)
Use ng/mL as the unit, but write only the number.

[Q] Report Human IL-23-inducible Kit-225 cell proliferation inhibitory activity, IC50 for fully human 25-3-4 (antibody, human IgG1, kappa, V domains shown, human Ig gamma1 / kappa) VH: QVQLQESGPGLVKPSQTLSLTCSVSGGSISSGDHYWTWIRQHPGKGLEWIGYIYSSGHTYYSPSLKSRVTISVDTSKNQFSLRLSSVTAADTAVYYCARVGDYEWFDTWGQGTLVTVSS VL: DIVMTQSPDSLAVSLGERATINCKSSQTILYPSNNMNYLGWYQQKPGQSPRLLIYWASTRESGVPDRFSGSGSGTDFTLTISSLQAEDVAVYYCQQYYSSLPTFGQGTKVEIKR
[A] 3.48
